Hello, the source for this data is ChEMBL document CHEMBL4513216, in case you need it.

# testDetails: Toxicity liver stage against HepG2, at 10uM
# Assay type: cell-based
# Set-up: test concentration 10 uM, cell line HepG2-A16-CD81EGFP
# conditions: human, HepG2-A16-CD81EGFP cells; read-out: INHIBITION
parameter: cytotoxicity at 10 µM (%)
Reply numerically in %, unit not repeated.

Item: `CN(CC1(CO)CCCC1)C(=O)c1cc(COc2ccccc2F)[nH]n1` | cytotoxicity at 10 µM: 6.2

Lookup result for `Cc1ccc(NCc2cncc3c2CCN(C(=O)C2CC=CC2)C3)nn1` ; measured cytotoxicity at 10 µM: -2.42

Briefly, cytotoxicity at 10 µM measured for Cc1cccc(C(C)C)c1NC(=O)CN(C)C(C)c1nccs1 (centres undefined) : -129

Recorded cytotoxicity at 10 µM (molecule CC1CN(C(=O)NCc2cccc(C#N)c2)CCN1CC(F)(F)F (centres undefined) ): -6.68

Entry CNS(=O)(=O)c1ccc(CNC(=O)NCC2CCCO2)cc1 (centres undefined) ; cytotoxicity at 10 µM = 7.12

Consider `CCc1ncc(C(=O)N2CC(Oc3ccccc3Cl)C2)cn1` . Its measured cytotoxicity at 10 µM is 45.7

Notebook: `Cc1nc(N(C)C)nc(N2CCC3(CC2)CNC(=O)O3)c1C` , cytotoxicity at 10 µM read as 14.9

# cytotoxicity at 10 µM (molecule: `COc1c(CNC2CCN(CC(=O)NC3CC3)CC2)c(C)nn1C` ) is 7.76

Reported cytotoxicity at 10 µM of O=C(c1cccc2c1OCCO2)N1CCCC(n2cccn2)C1 (centres undefined) : -3.73

# cytotoxicity at 10 µM (molecule: `Cc1c(NC(=O)CN(C)S(C)(=O)=O)cccc1OC1CCCC1` ) is -0.302

# molecule `Cc1cc(NC(=O)Cc2ccccc2O)c[nH]c1=O` ; its cytotoxicity at 10 µM = -2.38

Entry `CN(CC(N)=O)Cc1c(Cl)ccc2cccnc12` ; cytotoxicity at 10 µM = 4.53

Recorded cytotoxicity at 10 µM (molecule `CCCN(C)C(=O)c1cc(S(=O)(=O)NCC)ccc1C` ): -0.403

Item: `Cn1nc(Cl)cc1C(=O)N1CCC(C(=O)c2nc3ccccc3s2)CC1` | cytotoxicity at 10 µM: 3.34

// field: cytotoxicity at 10 µM; key: `Cc1nn(C)cc1CN(C)C(=O)c1ccccn1` ; value = 4.12

Memo: `c1cnc(N2CCC3(CCN(Cc4ccncc4)CC3)CC2)nc1` , reported cytotoxicity at 10 µM: -1.85

The molecule Cc1nc(C)c(C(=O)N2CCCC(n3ccnc3C)C2)s1 (centres undefined) showed cytotoxicity at 10 µM equal to -5.19

The molecule listed as COc1c(NC(=O)C(C)CCOc2ccccc2)c(C)nn1C (centres undefined) shows cytotoxicity at 10 µM equal to 8.96

molecule COc1ccc(CN2C[C@@H]3OCCN(CC4CCCO4)[C@@H]3C2)cc1 (some centres undefined) , cytotoxicity at 10 µM observed: -0.851

molecule `O=C(NCCOc1ccccc1)Nc1cc(C(F)(F)F)c[nH]c1=O` , cytotoxicity at 10 µM observed: -11.9

Reported cytotoxicity at 10 µM for CC(=O)NC(C)CC(=O)NCc1cccnc1Oc1ccccc1C (centres undefined) was 11.4

The molecule identified as CCOCC(=O)N1Cc2nnn(C)c2C(COCc2ccccn2)C1 (centres undefined) registered its cytotoxicity at 10 µM at -3.23

Lookup result for `COc1ccc(CCNCc2c(C)nn(C)c2N(C)C)cc1OC` ; measured cytotoxicity at 10 µM: -11.3

Item: `CC(C)(C)n1cc(C(=O)NCCCn2ccnc2)c2cccnc21` | cytotoxicity at 10 µM: 0.698

* * *

Would you kindly list cytotoxicity at 10 µM for each of these compounds?
# testDetails: Toxicity liver stage against HepG2, at 10uM
# Type: cell-based
# Parameters: test concentration 10 uM, cell line HepG2-A16-CD81EGFP
# conditions: human, HepG2-A16-CD81EGFP cells; read-out: INHIBITION
Quick reminder: number only, in %, skip the unit.

Summary for this compound, `COc1ccc(-c2nc(CNCCn3cccn3)cs2)cc1` : cytotoxicity at 10 µM is -1.17

Measured cytotoxicity at 10 µM of `CCN1CCNC(=O)C12CCN(C(=O)Cc1ccsc1)CC2` : -3.31

Notebook: `O=c1[nH]cc(N2CCCCC2)c(=O)[nH]1` , cytotoxicity at 10 µM read as 5.55

Form field cytotoxicity at 10 µM, entry `CCNC(=O)CN1CCN(Cc2nc3c(F)cccc3n2CC)CC1` : -11.5

cytotoxicity at 10 µM recorded for this compound, `C=Cn1ncc(CN2C[C@@H]3C[C@@H](O)CN3C[C@H]2Cc2ccccc2)c1C` , is 4.08

Please fill in: cytotoxicity at 10 µM reported for `CC(=O)c1ccc(-c2cnn(CC(=O)Nc3cc(C)nn3C)c2)nc1` = -6.93

So for `CNS(=O)(=O)c1cccc(CNc2cc(C(F)(F)F)ccn2)c1` , the logged cytotoxicity at 10 µM turned out to be -6.85

# cytotoxicity at 10 µM of `CCCOc1ccc(CNc2cncc(-n3cccn3)n2)cc1` = 11.7

Input `CC(C)c1nsc(N2CCOC3(CCCC3)C2)n1` . Output cytotoxicity at 10 µM: 0.243

For this compound ( `c1ccc2oc(C3CCN(Cc4ncon4)CC3)nc2c1` ), measured cytotoxicity at 10 µM is 2.56

Record Cc1nc(CNCC(C)c2nc3ccccc3o2)cs1 (centres undefined) . Reported cytotoxicity at 10 µM: 14.5

Sure, the documented cytotoxicity at 10 µM for `CC[C@@]1(O)CCN(C(=O)CN(C)Cc2ccc(F)cc2)C[C@H]1O` is 3.38

Measured cytotoxicity at 10 µM, `CN(C)CC1CCN(Cc2nccn2CC(F)(F)F)CC1` : 4.99

Notebook: `CN(C)Cc1nc2c(o1)CN(C(=O)c1ccncc1F)C2` , cytotoxicity at 10 µM read as -114

Input `N#Cc1ccccc1N1CCN(C(=O)NCCN2CCOCC2)CC1` . Output cytotoxicity at 10 µM: 1.08

For this compound ( Cc1cc(CN2CCC(C3CCN(CCc4ccccc4)C3)CC2)[nH]n1 (centres undefined) ), measured cytotoxicity at 10 µM is 7.19

// sample Cn1ccnc1CN1CCN(CC(O)c2cccc(F)c2)CC1 (centres undefined) , its cytotoxicity at 10 µM was 1.59

The measured cytotoxicity at 10 µM associated with Cc1ccc(C(C)(O)CNC(=O)CCn2ccnc2C(C)C)o1 (centres undefined) reads 8.53

What the record says about `CN(Cc1c(F)cccc1Cl)C(=O)c1cnn(CCN2CCOCC2)c1` : cytotoxicity at 10 µM is -4.2

Lookup result for `O=C(CNc1cc(-n2cnnn2)ccc1F)NCc1ccccc1` ; measured cytotoxicity at 10 µM: -6.2

Please fill in: cytotoxicity at 10 µM reported for CC(C)C(=O)NCC(=O)N(C)C1CCCN(CCc2ccccc2)C1 (centres undefined) = -16.9

Record `COc1ccc(NC(=O)N2CCC(c3noc(C)n3)CC2)cc1C` , field cytotoxicity at 10 µM: 17.2

For record `CCS(=O)(=O)c1ccccc1N1CCC(NC(=O)c2ccc[nH]2)CC1` the listed cytotoxicity at 10 µM is -8.26

Input CN(C)C(=O)Cn1c2c(ccc1=O)CC(NCc1ccoc1)CC2 (centres undefined) . Output cytotoxicity at 10 µM: 16.5

* * *

# testDetails: Toxicity liver stage against HepG2, at 10uM
# Type: cell-based
# Parameters: test concentration 10 uM, cell line HepG2-A16-CD81EGFP
# conditions: human, HepG2-A16-CD81EGFP cells; read-out: INHIBITION
parameter: cytotoxicity at 10 µM (%)
Answer with a number only, understood to be in %.

Value of cytotoxicity at 10 µM reported for the molecule COc1ncccc1C(=O)N1CCCC(n2ccnc2C)C1 (configuration not stated) is -7.41

So, CC(C)(C)SCC(=O)NC(C)(C(N)=O)c1cccc(Cl)c1 (configuration not stated) ? Its cytotoxicity at 10 µM was 1.61

Kindly note the recorded cytotoxicity at 10 µM for O=C(Nc1ccc2c(c1)OCCO2)N1CCCC1c1ccco1 (configuration not stated) , which is 8.2

Form: molecule = `CCOCC(C)(C)NC(=O)Nc1cc(F)ccc1OC` ; cytotoxicity at 10 µM = -3.12

The value of cytotoxicity at 10 µM measured for the molecule `Cc1ccc(CN(CCN(C)C)Cc2c(C)nc3sccn23)o1` turned out to be 3.08

In plain terms, `CN1CCC(c2cncc(C(=O)NCc3ccc(F)cc3)n2)CC1` has a documented cytotoxicity at 10 µM of -8.11

// cytotoxicity at 10 µM lookup, molecule = CCc1c(C)nc2cc(C3CCN(Cc4ccc(F)cc4)C3)nn2c1O (configuration not stated) , result: -18.6

Memo: Cc1nc2c(c(N3CCCC(OCc4ccccn4)C3)n1)CCNCC2 (configuration not stated) , reported cytotoxicity at 10 µM: 0.383

Form field cytotoxicity at 10 µM, entry `Cc1nc2c(c(N3C[C@@H](C)[C@@](C)(O)C3)n1)CCC2` : 9.74

Input Fc1ccc(C2(c3noc(CCN4CCCCO4)n3)CCOC2)cc1 (configuration not stated) . Output cytotoxicity at 10 µM: -1.54

Entry `COCCN1CCC2(CCN(Cc3ccc(OC)cc3)CC2)C1=O` , cytotoxicity at 10 µM reported as 2.88

Noted for `Cc1ccsc1CN(C)Cn1nccc1-c1cccnc1` : its cytotoxicity at 10 µM reads 7.49
